- Tested on: OVCAR-5 ovarian
- Test summary: NCI tumour cell line growth inhibition, 48 h
// TGI lookup, one value per entry
Numbers only here, please. The scale is µM.

// known answers, use as guide
> print(dat)
                                   molecule  measured.number
1     O=C(c1ccc(Cl)cc1)c1cnc(Nc2ccccc2Cl)s1             95.5
2  Cn1cnc([N+](=O)[O-])c1S(=O)(=O)Oc1ccccc1             74.9
3  O=C(NS(=O)(=O)OCC(Cl)(Cl)Cl)SCCC(F)(F)C(F)(F)C(F)(F)C(F)(F)C(F)(F)C(F)(F)F             34.6
4  Cc1cn2c(/C=C3\C(=O)Nc4ccc(O)cc43)c(-c3ccc(Cl)cc3)nc2s1             51.4

What value of measured TGI is listed for CCC1C2C=CC(CC2)N1S(=O)(=O)c1ccc(C)cc1 (stereo not given) ?
79
